Provide the reported normalized growth of each item.
Assay: chemical genetic growth profiling, strain panel (AID 1159580);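 note: tested at 20 µM; growth read once vehicle control cultures reached saturation at 30 °C; 1 = growth at the plate median or of vehicle wells; lower values mean less growth of the strain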
Settings: S. cerevisiae deletion strains, growth OD, locus YPR141C, strain kar3, active compounds read low
In all, about 5,500 compounds went through this assay and about 2,000 (36%) were called active. Another 18% or so got no clear call; they are omitted. This is one part of the list.
Reply briefly: the number, and no unit.

Exercise: If you can, please state the reported normalized growth value of CCC[C@@H]1C[C@@H](C(=O)N[C@H]([C@H]2O[C@H](SC)[C@H](O)[C@@H](O)[C@H]2O)[C@H](C)O)N(C)C1 .
Key: 0.985

Exercise: If you can, please state the reported normalized growth value of O=C(O)c1cccnc1C(=O)O .
Key: 0.978

Exercise: If you can, please state the reported normalized growth value of CC(=O)O[C@@H]1C2CC[C@@H]3C1(C[C@@H](O)[C@@]1(O)[C@@H](C[C@H](O)C1(C)C)[C@]3(C)O)C[C@@]2(C)O (some centres not stated) .
Key: 0.979

Exercise: If you can, please state the reported normalized growth value of CC(C)N=C(N)N=C(N)Nc1ccc(Cl)cc1 .
Key: 1.02

Exercise: If you can, please state the reported normalized growth value of C[N+]12CCC(CC1)C(OC(=O)C(O)(c1ccccc1)c1ccccc1)C2 (configuration not stated) .
Key: 0.967

Exercise: If you can, please state the reported normalized growth value of COc1ccc(NS(=O)(=O)c2ccc(N)cc2)nn1 .
Key: 0.988

Exercise: If you can, please state the reported normalized growth value of COc1ccc(/C=C/c2cc(O)cc(O[C@@H]3O[C@H](CO)[C@@H](O)[C@H](O)[C@H]3O)c2)cc1 .
Key: 0.982

Exercise: If you can, please state the reported normalized growth value of CNC(C)[C@@H]1CC[C@@H](N)[C@@H](OC2[C@@H](N)C[C@@H](N)[C@H](OC3OC[C@](C)(O)[C@H](NC)[C@H]3O)[C@H]2O)O1 (some centres not stated) .
Key: 1.02

Exercise: If you can, please state the reported normalized growth value of O=c1c(O)c(-c2ccccc2)oc2ccc3occc3c12 .
Key: 0.956

Exercise: If you can, please state the reported normalized growth value of Oc1cccc2cccnc12 .
Key: 0.0649

Exercise: If you can, please state the reported normalized growth value of O=C(O)c1cc(=O)c2ccccc2[nH]1 .
Key: 0.977

Exercise: If you can, please state the reported normalized growth value of COc1cc(OC)c2c(OC)c(-c3ccc4c(c3)OCO4)c(=O)oc2c1 .
Key: 1

Exercise: If you can, please state the reported normalized growth value of NC(=NCCCCCCN=C(N)N=C(N)Nc1ccc(Cl)cc1)N=C(N)Nc1ccc(Cl)cc1 .
Key: 1.01

Exercise: If you can, please state the reported normalized growth value of O=C(N[C@@H](CO)[C@H](O)c1ccc([N+](=O)[O-])cc1)C(Cl)Cl .
Key: 0.995

Exercise: If you can, please state the reported normalized growth value of CC(=O)OC1CCC2(O)CC1(C)CCC1C2CC1(C)C (configuration not stated) .
Key: 0.977

Exercise: If you can, please state the reported normalized growth value of COC(=O)C[C@H]1C(C)(C)[C@H](O)[C@@H]2CC3=C4CC(O)O[C@@H](c5ccoc5)[C@]4(C)CCC3[C@@]1(C)C2=O (some centres not stated) .
Key: 0.989

Exercise: If you can, please state the reported normalized growth value of Cc1ccc(O)c(C(CCN(C(C)C)C(C)C)c2ccccc2)c1 (configuration not stated) .
Key: 0.985

Exercise: If you can, please state the reported normalized growth value of O=c1c(O)c(-c2ccccc2)oc2ccccc12 .
Key: 0.993

Exercise: If you can, please state the reported normalized growth value of CC(C)Cn1c(=O)n(C)c(=O)c2[nH]cnc21 .
Key: 0.975

Exercise: If you can, please state the reported normalized growth value of OC[C@H]1O[C@@H](Oc2ccc(O)cc2)[C@H](O)[C@@H](O)[C@@H]1O .
Key: 1.02

Exercise: If you can, please state the reported normalized growth value of CN1CCCCC1c1ccc(-c2cccnc2)nc1 (configuration not stated) .
Key: 0.986

Exercise: If you can, please state the reported normalized growth value of CC(=O)NS(=O)(=O)c1ccc(N)cc1 .
Key: 0.981

Exercise: If you can, please state the reported normalized growth value of CC(=O)OC1CCC23CC1(C)CCC2C(C)(C)CC3OC(C)=O (configuration not stated) .
Key: 0.971

Exercise: If you can, please state the reported normalized growth value of COc1cc([C@@H]2c3cc4c(cc3[C@H](O)[C@H]3COC(=O)[C@H]23)OCO4)cc(OC)c1OC .
Key: 1.01

Exercise: If you can, please state the reported normalized growth value of C=C(C)C1Cc2c(ccc3c(=O)c4c(oc23)COc2cc(OC)c(OC)cc2-4)O1 (configuration not stated) .
Key: 0.974

Exercise: If you can, please state the reported normalized growth value of CC(=O)Oc1c(C)c(C)c2c(c1C)CCC(C)(CCCC(C)CCCC(C)CCCC(C)C)O2 (configuration not stated) .
Key: 1

Exercise: If you can, please state the reported normalized growth value of CCCCCC/C=C\CCCCCCCc1cccc(O)c1C(=O)O .
Key: 0.982
